Below is a list of entries, each paired with its recorded pIC50 value.
Target: human PD-1/PD-L1 binding (Homo sapiens, UniProt Q9NZQ7)
Construct: PD-L1-His protein (19 to 238 amino acids) (Abcam #ab167713); purchased Abcam (PD-L1-His); R&D (PD-1-Fc) ab167713; 1086-PD
Sequence (Q9NZQ7 19-238): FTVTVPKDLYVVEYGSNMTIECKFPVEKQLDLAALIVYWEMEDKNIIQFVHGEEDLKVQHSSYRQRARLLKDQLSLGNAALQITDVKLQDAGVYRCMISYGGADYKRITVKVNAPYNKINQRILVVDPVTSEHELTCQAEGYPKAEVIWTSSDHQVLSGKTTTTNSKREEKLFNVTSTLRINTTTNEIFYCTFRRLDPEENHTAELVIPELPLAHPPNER
Assay: Inhibition of human PD-1/PD-L1 binding (TR-FRET/HTRF)
Conditions: TR-FRET, PD-L1-His and PD-1-Fc; read-out: PD-1/PD-L1 binding IC50
pIC50: −log10 of the molar value.

{"columns": ["Compound", "pIC50"],
 "data": [
  ["COc1nc(-c2cccc(-c3cccc(NC(=O)c4nc5c(n4C)CCN(C)C5)c3Cl)c2Cl)ccc1CN[C@H]1CCOC[C@@H]1O (relative stereo)", 8.38],
  ["COc1nc(-c2cccc(-c3cccc(NC(=O)c4nc5c(n4C)CCN(C)C5)c3Cl)c2Cl)ccc1CN1CC[C@H]1CO", 8.20],
  ["COc1nc(-c2cccc(-c3cccc(NC(=O)c4nc5c(n4C)CCN(C)C5)c3Cl)c2Cl)ccc1CN1CC(C(=O)O)C1", 8.92],
  ["COc1nc(-c2cccc(-c3cccc(NC(=O)c4nc5c(n4C)CCN(C)C5)c3Cl)c2Cl)ccc1CNC1CN(C(C)=O)C1", 8.10],
  ["COc1cc(-c2cccc(-c3cccc(NC(=O)c4nc5c(n4C)CCN(C)C5)c3Cl)c2C)ncc1CNC1CCOCC1", 8.33],
  ["COc1nc(-c2cccc(-c3cccc(NC(=O)c4nc5c(n4C)CCN(C)C5)c3Cl)c2Cl)ccc1CN1CC2(C1)CN(C(=O)C(F)F)C2", 8.07],
  ["CCn1c(C(=O)Nc2cccc(-c3cccc(-c4ccc(CN5CC6(COC6)C5)c(OC)n4)c3Cl)c2Cl)nc2c1CCN(C)C2", 8.28],
  ["COc1nc(-c2cccc(-c3cccc(NC(=O)c4nc5c(n4C)CCN(C)C5)c3Cl)c2Cl)ccc1CNC[C@H](C)O", 8.34],
  ["COc1cc(CN2CC(F)C2)cnc1C(=O)Nc1cccc(-c2cccc(NC(=O)c3nc4c(n3C)CCN(C)C4)c2Cl)c1C", 8.08],
  ["COc1nc(-c2cccc(-c3cccc(NC(=O)c4nc5c(n4C)CCN(C)C5)c3Cl)c2Cl)ccc1CN1CC(CNC(C)=O)C1", 8.47],
  ["COc1nc(-c2cccc(-c3cccc(NC(=O)c4nc5c(n4C)CCN(C)C5)c3Cl)c2Cl)ccc1CN1CC(C)(O)C1", 8.32],
  ["COc1nc(-c2cccc(-c3cccc(NC(=O)c4nc5c(n4C)CCN(C)C5)c3Cl)c2Cl)ccc1CN1CC(O)(CO)C1", 8.52],
  ["COc1cc(C(=O)Nc2cccc(-c3cccc(NC(=O)c4nc5c(n4C)CCN(C)C5)c3Cl)c2C)ncc1CNC1COC1", 8.30]
]}

====

Biological target: PD-L1 protein on the surface of MC38-hPDL1 tumor cells (Homo sapiens)
Construct: expressed in transfected cells; host or cells: MC38-hPDL1 (mouse colon cancer cells)
Sequence (Q9NZQ7 19-290): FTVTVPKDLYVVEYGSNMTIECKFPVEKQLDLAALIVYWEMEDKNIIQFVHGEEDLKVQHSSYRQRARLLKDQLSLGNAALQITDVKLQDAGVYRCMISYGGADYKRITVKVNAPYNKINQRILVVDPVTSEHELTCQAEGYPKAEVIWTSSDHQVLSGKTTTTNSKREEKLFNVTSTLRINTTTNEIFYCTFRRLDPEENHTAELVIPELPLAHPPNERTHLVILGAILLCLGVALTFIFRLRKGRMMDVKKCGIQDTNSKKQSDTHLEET
Test: Induction of endocytosis of PD-L1 on the surface of tumor cells (flow cytometry)
Type: cell-based
Conditions: inducing endocytosis of PD-L1, MC38-hPDL1 cells, 16 hours incubation; read-out: MC38 IC50
IC50 values by entry

{"columns": ["Compound structure", "IC50 (nM)"],
 "data": [
  ["COc1nc(-c2cccc(-c3cccc(NC(=O)c4nc5c(n4C)CCN(C)C5)c3Cl)c2Cl)ccc1CNCC(=O)O", 4.5],
  ["COc1cc(C(=O)Nc2cccc(-c3cccc(NC(=O)c4nc5c(n4C)CCN(C)C5)c3Cl)c2C)ncc1CNc1cc(C)ncn1", 14],
  ["COc1cc(NCc2cnc(C(=O)Nc3cccc(-c4cccc(NC(=O)c5nc6c(n5C)CCN(C)C6)c4Cl)c3C)cc2C2CC2)ccn1", 4.2]
]}
